- testTarget: UniProt Q08210
- assayExplanation: Literature inhibition data for soluble recombinant PfDHODH (s-PfDHODH), dodecylubiquinone as substrate
- Assay type: biochemical
- testSettings: converted from literature IC50 assuming competitive inhibition against DQ (Cheng and Prusoff); read-out: PfDHODH Ki
Below: a set of entries, each annotated with reported pKi.
Lab note — pKi values are minus log10 of concentrations in M.

Cc1cc(Nc2ccc(Br)c(C(F)(F)F)c2)n2ncnc2n1; 6.74
CCCCCC1CCCc2c1nc1ccccc1c2O (stereo not shown); 6.82
Cc1cc(Nc2cccc(C(F)(F)F)c2)n2ncnc2n1; 5.25
Cc1cc(Nc2cc(F)cc(F)c2)n2ncnc2n1; 5.42
N#C/C(C(=O)Nc1ccc(C(F)(F)F)cc1)=C(/O)C1CC1; 4.96
Cc1cc(Nc2ccc(-c3ccccc3)cc2)n2ncnc2n1; 5.67
C/C(O)=C(/C#N)C(=O)Nc1ccc(-c2cccc(Cl)c2)cc1Cl; 5.24
CCc1cc(Nc2ccc3ccccc3c2)n2ncnc2n1; 7.10
Cc1cc(Nc2ccc(Cl)cc2)n2ncnc2n1; 6.19

Consider now this further compound.
// pKi lookup, compound = Cc1cc(Nc2ccc(Cc3ccccc3)cc2)n2ncnc2n1 , result: 6.06

----------
- testTarget: s-PfDHODH (Plasmodium falciparum, UniProt Q08210)
- Sequence (Q08210 158-569 limits assumed): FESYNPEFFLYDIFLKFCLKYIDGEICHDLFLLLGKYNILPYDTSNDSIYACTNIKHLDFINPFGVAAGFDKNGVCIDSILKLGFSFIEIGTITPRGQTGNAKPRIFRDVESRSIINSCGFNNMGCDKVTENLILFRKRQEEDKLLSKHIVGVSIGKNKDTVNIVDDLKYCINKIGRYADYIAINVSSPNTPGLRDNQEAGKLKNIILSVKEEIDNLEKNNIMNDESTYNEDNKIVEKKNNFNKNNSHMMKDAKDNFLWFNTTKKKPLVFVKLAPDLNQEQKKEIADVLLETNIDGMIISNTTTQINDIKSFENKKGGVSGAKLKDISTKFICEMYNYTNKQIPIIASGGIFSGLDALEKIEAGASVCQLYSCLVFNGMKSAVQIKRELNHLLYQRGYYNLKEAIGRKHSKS
- assayExplanation: Literature inhibition data for soluble recombinant PfDHODH (s-PfDHODH), dodecylubiquinone as substrate
- Type: biochemical
- testSettings: converted from literature IC50 assuming competitive inhibition against DQ (Cheng and Prusoff); read-out: PfDHODH Ki
pKi: −log10 of the molar value.
Rule: pKi under 6 gives F, otherwise T.

Would you please look over these solved cases?
O=C(NC1CC1)c1ccc(N2CCSc3ccccc32)s1 [Compound P04]; T
Cc1nc2ncnn2c(Nc2ccc3ccccc3c2)c1C [Tz10]; T

Query string: hey, is pKi for this one >= 6? Cc1cc(Nc2ccc(F)cc2)n2ncnc2n1 [Compound G17]
Result string: F

Query string: hey, is pKi for this one >= 6? Cc1cc(Nc2cccc(Cl)c2)n2ncnc2n1 [Compound G14]
Result string: T

Query string: hey, is pKi for this one >= 6? Cc1cc(Nc2cc3ccccc3cc2O)n2ncnc2n1 [Tz16]
Result string: T

Query string: hey, is pKi for this one >= 6? Cc1cc(Nc2ccc([N+](=O)[O-])cc2)n2ncnc2n1 [Compound G25]
Result string: F

Query string: hey, is pKi for this one >= 6? Cc1cc(Nc2cccc3ccccc23)n2ncnc2n1 [Tz18]
Result string: F

Query string: hey, is pKi for this one >= 6? Cc1ccccc1/C=C/c1cc(O)c2ccccc2n1 [Compound P01]
Result string: T

Query string: hey, is pKi for this one >= 6? C/C(O)=C(/C#N)C(=O)Nc1ccc(-c2cccc(Cl)c2Cl)cc1 [Compound D26]
Result string: F

Query string: hey, is pKi for this one >= 6? Cc1cc(N(Cc2ccccc2)c2ccc3ccccc3c2)n2ncnc2n1 [Tz12]
Result string: F
